Target: T1, recombinant human ErbB2 extracellular domain (ErbB2-ECD) (human, UniProt P04626 23-652)
T1 construct: extracellular domain; Coated on plates or used biotin-labeled in solution (capture ELISA); also called Human ErbB2-ECD; rhErbB2
Assay: capture ELISA, recombinant ErbB2-ECD
pEC50: −log10 of the molar value.
REPORTED_PROPERTY: pEC50

[[record]]
binder = "5F12 chimera (antibody, V domains shown, also called 5F12 chimeric; 5F12 chimeric antibody) VH: QVQLQQSGAELARPGASVKMSCKASGYTFTSYTMHWIKQRPGQGLEWIGYINPSSSYTNYNQNFKDKATLTADKSSSTANMQLNSLTSEDSAVYYCARASSYSLDYWGQGTALTVSS VL: DIQMTQSPSSLSTSLGGKVTITCKASQDINKYIAWYQHKPGKGPRLLIHSTSTLYPGIPSRFSGSGSGKDYSFRITNLEPEDIATYYCLQYDNLLWTFGGGTKLGIR"
quantitative_result = 10.62

[[record]]
binder = "4H2 chimera (antibody, V domains shown, also called 4H2 chimeric antibody) VH: QVQLQQSGAELARPGASVKMSCKASGFTFTSYTIHWVKQRPGQGLDWIGYINPSSGYTTYNQRFKDKATLTADKSSSTAYMQLSSLTSADSAVYYCARASAYSLDYWGQGTTLTVSS VL: DIQMTQSPSSLSASLGGKVTITCKASQDIDRYIAWYQHKPGKGPRLLIHYTSTLQPGIPSRFSGSGSGRNYSFSISNLEPEDIATYYCLKYDNLLWTFGGGTKLEIK"
quantitative_result = 9.93

[[record]]
binder = "4G6 chimera (antibody, V domains shown, also called 4G6 chimeric antibody) VH: QVQLQQSGAELARPGASVKMSCKASGYTFTSYTMHWVKQRPGQGLEWIGYINPSSAYTNYNQKFKDKATLTADKSSSTANMQLNSLTSEDSAVYYCARASAYSLDYWGQGTALTVSS VL: DIQMTQSPSSLSASLGGKVTITCKASQDINKYIAWYQHKPGKGPRLLIHSTSTLYPGIPSRFSGSGSGRDYSFRITNLEPEDIATYYCLQYDNLLWTFGGGTKVGIR"
quantitative_result = 10.70

